Give measured aptazyme ON/OFF ratio for each item. Keep answers brief.
B1: Pistol ribozyme (parent)
chain: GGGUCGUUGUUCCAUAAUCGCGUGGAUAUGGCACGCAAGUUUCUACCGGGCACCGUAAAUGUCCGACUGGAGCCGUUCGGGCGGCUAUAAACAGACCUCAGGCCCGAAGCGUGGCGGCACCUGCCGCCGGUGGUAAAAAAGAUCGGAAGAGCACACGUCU

- Variants of: B1
- procedure-text: aptazyme ON/OFF ratio, guanine; higher = stronger switching; co-transcriptional cleavage with and without guanine
Give bare numbers.

Reference set, count: 10
variant-annotation	aptazyme ON/OFF ratio
U7A U8G G9C U10C U11A C12G C13A	1.23
U7C U8G G9C U10A U11G C12U	1.31
U7C U8A G9A U10G U11A C12A C13A	1.18
U7G U8C C12A	1.05
U7C U8C U10G U11A C12A C13A	1.11
U7A U8A G9U U10C U11G	1.33
U7C U8G U11A C12U C13G	1.09
U7A G9A U10A U11A C12A C13G	1.13
U8G U10C U11G C13U	1.05
U7G U8G G9A U10A U11A C13U	1.18

For each of the variants below, note its aptazyme ON/OFF ratio.
1. U7G U8G G9U U10G U11C C12U
2. U7A G9U U10C C12A C13A

1.04
1.21

Please look at the items below and tell me aptazyme ON/OFF ratio for each one, in order.
1. U7A U8C U10G U11A C12G C13U
2. U7G U8A G9U U10C U11C C12U

1. 1.2
2. 1.06
